Biological target: human OX2 receptor (Homo sapiens)
Construct: expressed in transfected cells
Sequence (O43614 1-444): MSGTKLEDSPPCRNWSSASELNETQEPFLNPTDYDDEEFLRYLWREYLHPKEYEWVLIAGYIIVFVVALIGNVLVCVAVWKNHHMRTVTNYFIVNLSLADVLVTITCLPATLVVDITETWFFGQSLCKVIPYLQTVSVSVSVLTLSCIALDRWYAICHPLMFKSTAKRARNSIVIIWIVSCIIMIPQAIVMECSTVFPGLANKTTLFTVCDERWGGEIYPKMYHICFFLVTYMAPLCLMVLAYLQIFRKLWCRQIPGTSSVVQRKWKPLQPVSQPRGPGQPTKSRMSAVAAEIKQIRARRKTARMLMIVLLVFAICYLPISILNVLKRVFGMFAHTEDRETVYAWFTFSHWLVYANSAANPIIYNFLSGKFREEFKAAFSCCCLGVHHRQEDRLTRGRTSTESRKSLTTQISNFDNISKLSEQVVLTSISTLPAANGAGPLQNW
Assay: Measurement of orexin type 2 receptor agonist activity (Experimental Example 2; Fluo-4 AM calcium fluorescence, FDSS μCELL)
Type: cell-based
Settings: compound at 3 μM; CHO cells expressing human OX2 receptor; DMSO = 0%, 10 nM orexin A (human) = 100%
property measured: OX2R agonist activity (3 μM, %)

molecule | unit label | reported result
Cc1ccc2nc1COc1cccc(c1F)C[C@H]1[C@@H](NS(C)(=O)=O)C(F)(F)CN1C(=O)NC2 | % | 87
CN(C)S(=O)(=O)N[C@@H]1[C@@H]2Cc3cccc(c3F)Oc3nc(ccc3Cl)CNC(=O)N2CC1(F)F | % | 99
CS(=O)(=O)N[C@@H]1[C@@H]2Cc3cccc(c3F)Oc3nc(ccc3Cl)CNC(=O)N2CC1(F)F | % | 99
Cc1cnc2nc1Oc1cccc(c1F)C[C@H]1[C@@H](NS(C)(=O)=O)C(F)(F)CN1C(=O)[C@@H]1C[C@@H](F)CN21 | % | 96
CCS(=O)(=O)N[C@@H]1[C@@H]2Cc3cccc(c3F)Oc3nc(ccc3C)OCC(=O)N2CC1(F)F | % | 105
CCS(=O)(=O)N[C@@H]1[C@@H]2Cc3cccc(c3F)Oc3ccc(F)c(n3)CNC(=O)N2CC1(F)F | % | 88
Cc1cc(F)c2nc1Oc1cccc(c1F)C[C@H]1[C@@H](NS(C)(=O)=O)C(F)(F)CN1C(=O)NC2 | % | 104
Cc1ccc2nc1Oc1cccc(c1F)C[C@H]1[C@@H](NS(C)(=O)=O)[C@@H](F)CN1C(=O)NC2 | % | 96
CS(=O)(=O)N[C@@H]1[C@@H]2Cc3cccc(c3)Oc3nc(ccc3Cl)OCC(=O)N2CC1(F)F | % | 107
Cc1ccc2nc1Oc1cccc(c1)C[C@H]1[C@@H](NS(C)(=O)=O)C(F)(F)CN1C(=O)NC2 | % | 96
Cc1ccc2nc1COc1cccc(c1F)C[C@H]1[C@@H](NS(C)(=O)=O)C(F)(F)CN1C(=O)CO2 | % | 97
CCS(=O)(=O)N[C@H]1[C@@H](F)CN2C(=O)NCc3ccc(C)c(n3)Oc3cccc(c3F)C[C@@H]12 | % | 105
CCS(=O)(=O)N[C@@H]1[C@@H]2Cc3cc(F)cc(c3)Oc3nc(ccc3C)CNC(=O)N2CC1(F)F (relative stereo) | % | 114
CCS(=O)(=O)N[C@H]1[C@@H](F)CN2C(=O)NCc3ccc(C)c(n3)Cc3cccc(c3F)C[C@@H]12 | % | 100

* * *

Molecular target: human OX2 receptor (Homo sapiens, UniProt O43614)
Construct: expressed in transfected cells
Assay: Measurement of orexin type 2 receptor agonist activity (Experimental Example 2; Fluo-4 AM calcium fluorescence, FDSS μCELL)
Assay type: cell-based
Conditions: compound at 3 μM; CHO cells expressing human OX2 receptor; DMSO = 0%, 10 nM orexin A (human) = 100%
property measured: OX2R agonist activity (3 μM, %)

compound | unit label | OX2R agonist activity (3 μM, %)
CCS(=O)(=O)N[C@@H]1[C@@H]2Cc3cccc(c3F)Oc3nc(ccc3Cl)CNC(=O)N2CC1(F)F [Example 17] | % | 100
CS(=O)(=O)N[C@@H]1[C@@H]2Cc3cccc(c3F)Oc3nc(ccc3Cl)CN(CC(F)F)C(=O)N2CC1(F)F [Example 60] | % | 104
CCS(=O)(=O)N[C@H]1[C@@H](F)CN2C(=O)COc3ccc(C)c(n3)Oc3cccc(c3)C[C@@H]12 [Example 78] | % | 97
CS(=O)(=O)N[C@@H]1[C@@H]2Cc3cccc(c3)Oc3nc(ccc3C(F)F)CNC(=O)N2CC1(F)F [Example 93] | % | 109
CS(=O)(=O)N[C@@H]1[C@@H]2Cc3ccc(F)c(c3)Oc3nc(ccc3Cl)OCC(=O)N2CC1(F)F (relative stereo) [Example 95] | % | 103
Cc1cnc2nc1Oc1cccc(c1F)C[C@H]1[C@@H](NS(C)(=O)=O)C(F)(F)CN1C(=O)CO2 [Example 77] | % | 104
CS(=O)(=O)N[C@@H]1[C@@H]2Cc3cccc(c3F)Oc3nc(cs3)CNC(=O)N2CC1(F)F [Example 85] | % | 95

* * *

Molecular target: human OX2 receptor (Homo sapiens, UniProt O43614)
Construct: expressed in transfected cells
Sequence (O43614 1-444): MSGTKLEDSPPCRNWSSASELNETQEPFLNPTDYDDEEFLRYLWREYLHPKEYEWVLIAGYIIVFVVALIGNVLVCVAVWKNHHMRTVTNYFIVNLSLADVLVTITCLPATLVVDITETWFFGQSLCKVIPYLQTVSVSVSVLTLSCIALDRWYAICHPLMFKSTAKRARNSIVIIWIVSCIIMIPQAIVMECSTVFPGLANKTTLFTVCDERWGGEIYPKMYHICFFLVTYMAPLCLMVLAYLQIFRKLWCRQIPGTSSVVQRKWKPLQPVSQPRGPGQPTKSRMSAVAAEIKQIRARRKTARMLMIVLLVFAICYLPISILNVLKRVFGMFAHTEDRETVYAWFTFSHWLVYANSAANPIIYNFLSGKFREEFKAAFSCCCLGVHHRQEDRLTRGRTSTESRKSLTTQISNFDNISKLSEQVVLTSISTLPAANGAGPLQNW
Assay: Measurement of orexin type 2 receptor agonist activity (Experimental Example 2; Fluo-4 AM calcium fluorescence, FDSS μCELL)
Type: cell-based
Conditions: compound at 3 μM; CHO cells expressing human OX2 receptor; DMSO = 0%, 10 nM orexin A (human) = 100%
property measured: OX2R agonist activity (3 μM, %)

compound | unit label | OX2R agonist activity (3 μM, %)
Cc1ccc2nc1OCc1cccc(c1F)C[C@H]1[C@@H](NS(C)(=O)=O)C(F)(F)CN1C(=O)NC2 | % | 104
CCS(=O)(=O)N[C@H]1[C@@H](F)CN2C(=O)COc3ccc(Br)c(n3)Oc3cccc(c3)C[C@@H]12 | % | 96
CS(=O)(=O)N[C@@H]1[C@@H]2Cc3cccc(c3)Oc3nc(ccc3C(F)F)[C@@H]3C[C@@H]3C(=O)N2CC1(F)F (single isomer, unassigned) | % | 108
CCS(=O)(=O)N[C@H]1[C@@H](F)CN2C(=O)N(C)Cc3ccc(Cl)c(n3)Oc3cccc(c3)C[C@@H]12 | % | 103
CS(=O)(=O)N[C@H]1[C@@H](F)CN2C(=O)COc3ccc(Cl)c(n3)Cc3cccc(c3F)C[C@@H]12 | % | 103
Cc1cnc2nc1Oc1cccc(c1F)C[C@H]1[C@@H](NS(C)(=O)=O)C(F)(F)CN1C(=O)CN2C | % | 95
CCS(=O)(=O)N[C@H]1[C@@H](F)CN2C(=O)COc3ccc(Cl)c(n3)Oc3cc(ccc3F)C[C@@H]12 (relative stereo) | % | 106
CS(=O)(=O)N[C@@H]1[C@@H]2Cc3cccc(c3F)Oc3nc(ccc3Cl)OCC(=O)N2CC1(F)F | % | 102
CCc1ccc2nc1Oc1cccc(c1F)C[C@H]1[C@@H](NS(C)(=O)=O)C(F)(F)CN1C(=O)NC2 | % | 102
CS(=O)(=O)N[C@H]1[C@@H](F)CN2C(=O)NCc3cc(c(Cl)cn3)Oc3cccc(c3F)C[C@@H]12 | % | 84
Cc1cnc2nc1Oc1cccc(c1F)C[C@H]1[C@@H](NS(C)(=O)=O)C(F)(F)CN1C(=O)[C@@H]1CCCN21 | % | 106
CO[C@@H]1C[C@H]2C(=O)N3CC(F)(F)[C@H](NS(C)(=O)=O)[C@@H]3Cc3cccc(c3F)Oc3nc(ncc3C)N2C1 | % | 96
CCS(=O)(=O)N[C@H]1[C@@H](F)CN2C(=O)COc3ccc(Cl)c(n3)Oc3cccc(c3F)C[C@@H]12 | % | 100
CCS(=O)(=O)N[C@H]1[C@@H](F)CN2C(=O)COc3ncc(C)c(n3)Oc3cccc(c3)C[C@@H]12 | % | 99
